TARGET SYSTEM: BTK (Homo sapiens (Human), UniProt Q06187)
Sequence (Q06187 whole entry, species assumed): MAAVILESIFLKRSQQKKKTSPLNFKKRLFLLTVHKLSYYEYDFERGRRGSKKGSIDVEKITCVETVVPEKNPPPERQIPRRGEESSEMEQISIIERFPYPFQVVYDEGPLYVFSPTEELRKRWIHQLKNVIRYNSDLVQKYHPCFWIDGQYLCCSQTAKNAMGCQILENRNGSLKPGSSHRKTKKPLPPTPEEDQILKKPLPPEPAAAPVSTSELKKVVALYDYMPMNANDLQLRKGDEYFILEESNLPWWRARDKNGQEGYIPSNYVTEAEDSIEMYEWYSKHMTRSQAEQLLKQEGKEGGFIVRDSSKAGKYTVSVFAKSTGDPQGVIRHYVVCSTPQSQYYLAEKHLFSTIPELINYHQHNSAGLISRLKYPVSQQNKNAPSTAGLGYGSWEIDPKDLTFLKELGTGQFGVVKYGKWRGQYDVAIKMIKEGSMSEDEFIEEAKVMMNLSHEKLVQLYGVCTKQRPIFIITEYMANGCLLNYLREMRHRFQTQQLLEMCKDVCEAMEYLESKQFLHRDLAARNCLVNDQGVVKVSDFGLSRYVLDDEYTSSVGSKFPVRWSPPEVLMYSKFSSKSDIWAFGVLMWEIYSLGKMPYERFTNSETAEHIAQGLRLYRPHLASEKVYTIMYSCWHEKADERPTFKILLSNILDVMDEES
PROTOCOL: Btk kinase assay (HTRF)
Assay type: biochemical
COND: [ATP]=80 μM, BTK=3.4 nM; read-out: BTK Inhibition
MEASURED PARAMETER: IC50

- C=CC(=O)N1CCC[C@@H](n2nc(-c3ccc(Oc4cccc(C)c4F)cc3)c3cnccc32)C1: 10 to 100 nM
- C=CC(=O)N1CCC(Cn2nc(-c3ccc(Oc4ccccc4)cc3)c3cnccc32)C1 (stereo not shown): 10 to 100 nM
- C=CC(=O)N1CCC[C@@H](n2nc(-c3ccc(Oc4cccc(OC)c4F)cc3)c3cncc(OC(C)C)c32)C1: 10 to 100 nM
- C=CC(=O)N1CC[C@@H](n2nc(-c3ccc(-c4cccc(C)c4)cc3)c3cnccc32)C1: 10 to 100 nM
- C=CC(=O)N1CCC[C@@H](n2nc(-c3ccc(Oc4cccc(Cl)c4)cc3)c3cnccc32)C1: 10 to 100 nM
- C=CC(=O)N1CCC[C@@H](n2nc(-c3ccc(Oc4cccc(F)c4F)cc3)c3cnccc32)C1: < 10 nM
- C=CC(=O)N1CCC[C@@H](n2nc(-c3ccc(Oc4cccc(OC)c4F)cc3)c3cncc(OC4CCOC4)c32)C1 (stereo partly shown): < 10 nM
